All values here come from patent US11584746B2.

Here, each record is paired with measured EC50 data.
System: EGFR T790M/L858R Ba/F3 cell line
Experiment: Ba/F3 cell proliferation (MTS assay), EGFR T790M/L858R
Format: cell-based, murine
Conditions: read-out: Ba/F3 cellular activity (EC50) T790M/L858R + Cetuximab (1 μg/mL); presence of 1 μg/mL cetuximab
Description: The selectivity between wild-type EGFR and EGFR containing one or more mutations as described herein can also be measured using cellular proliferation assays where cell proliferation is dependent on kinase activity. […] Growth and inhibition of growth was assessed by MTS assay and was performed according to previously established methods (Zhou 2009). […]

Suppose we examine the compound Nc1ccc2c(c1)N(Cc1ccccc1)C(=O)c1cc(-c3ccc4[nH]ccc4c3)ccc1N2 ; what EC50 value has been reported?
≥ 750 nM

Suppose we examine the compound CN1CCC(n2cc(-c3ccc4c(c3)C(=O)N(Cc3cccc(F)c3)c3cc(F)ccc3N4)cn2)CC1 ; what EC50 value has been reported?
≥ 750 nM
